Cited source: PubChem BioAssay (NCATS)

# protocol text: Stat Signaling Pathway (AID 446);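 note: ME-180 cervical cancer cells given 40 pM IL-6 alongside compound; SIE-controlled beta-lactamase reporter measured as 460/530 nm FRET emission ratio; % is set by controls: 0 for no effect and ±100 for the full control effect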
# condition summary: ME-180 (cervical carcinoma) SIE beta-lactamase reporter, IL-6 stimulated, 5 h; at 17.2 µM (top of the series) unless noted
Records with an inconclusive call do not appear.
metric name: activity, negative = inhibition (%)
Answers are plain numbers, in %.

C=CCOc1nc(-c2ccncc2)nc2ccccc12	12.7
Cn1c(N2CCN(c3ccccn3)CC2)nc2c1c(=O)n(Cc1ccccc1Cl)c(=O)n2C	-8.44
Cc1ccc(C2CC(c3cccs3)n3nc(N)nc3N2)cc1 (stereo unspecified)	3.76
CCOC(=O)C1CCN(c2nc3ccccc3nc2C(C#N)C(=O)NCCc2ccccc2)CC1 (stereo unspecified)	-24.6
COC(=O)c1ccc(OC(=O)c2ccc(OC)c(OC)c2)c(OC)c1	-2.16

Could you now consider this next compound?
Exercise: Fill in: activity, negative = inhibition of CCCCCOC(=O)C(C)c1c(C)[nH]c(=S)[nH]c1=O (stereo unspecified) is ___
Solution: -4.24

---

# Test system: CP192
# protocol text: qHTS profiling for inhibitors of Plasmodium falciparum proliferation (AID 504749); note: nearly all actives have a fitted effect of over 60% in size
# condition summary: P. falciparum in erythrocytes, SYBR Green DNA, 72 h; series mostly up to 28.7 µM
Inconclusive results are not listed. Calls of active or inactive are those of the source. Calls come from the whole dose curve; as a rule, active = well fitted inhibition curve with a large enough effect; inconclusive = small, poorly fitted or top-dose-only effect; inactive = flat fitted curve, though single readings scatter.
Thanks in advance; please answer with one of these: Yes = active, No = inactive

# example entries with known answers
CCCC(=O)Nc1c(I)cc(I)c(C[C@H](CC)C(=O)O)c1I	No
O=c1[nH]c(=O)n(C2C[C@H](O)[C@@H](CO)O2)cc1C(F)(F)F (some centres not stated)	No
CCCCC/C(C=O)=C/c1ccccc1	No
CC(c1ncncc1F)[C@](O)(Cn1cncn1)c1ccc(F)cc1F (some centres not stated)	No
C/C1=C2/[N-]C(C(CC(N)=O)[C@@]2(C)CCC(=O)NCC(C)OP(=O)([O-])O[C@H]2[C@@H](O)[C@@H](n3cnc4cc(C)c(C)cc43)O[C@@H]2CO)[C@]2(C)N=C(/C(C)=C3N=C(/C=C4N=C1C(CCC(N)=O)C\4(C)C)[C@@H](CCC(N)=O)[C@]\3(C)CC(N)=O)[C@@H](CCC(N)=O)[C@]2(C)CC(N)=O.CC(=O)O.[Co] (some centres not stated)	No

Exercise: Test call, this molecule: COc1cccc2c1C(=O)c1c(O)c3c(c(O)c1C2=O)C[C@@](O)(C(=O)CO)C[C@@H]3OC1CC(N)C(O)C(C)O1 (some centres not stated)
Solution: Yes

Exercise: Test call, this molecule: CNC1CCc2cc(OC)c(OC)c(OC)c2-c2ccc(OC)c(=O)cc21 (configuration not stated)
Solution: No

Exercise: Test call, this molecule: CC1CN(c2c(F)c(N)c3c(=O)c(C(=O)O)cn(C4CC4)c3c2F)CC(C)N1 (configuration not stated)
Solution: No

Exercise: Test call, this molecule: C=C1N[C@]2(C(=O)COC(C)=O)[C@@H](C[C@H]3[C@@H]4CCC5=CC(=O)C=C[C@]5(C)[C@H]4[C@@H](O)C[C@@]32C)O1
Solution: No

Exercise: Test call, this molecule: OCC(O)C(O)C(O)C(O)CO (configuration not stated)
Solution: No

Exercise: Test call, this molecule: CC(=O)NC[C@@H]1CN(c2ccc(N3CCOCC3)c(F)c2)C(=O)O1
Solution: No

Exercise: Test call, this molecule: CC1OC(OC2C(O)CC(OC3C(O)CC(OC4CCC5(C)C(CCC6C5CCC5(C)C(C7=CC(=O)OC7)CCC65O)C4)OC3C)OC2C)CC(O)C1O (configuration not stated)
Solution: No

Exercise: Test call, this molecule: CC(O)C(N)C(=O)O (configuration not stated)
Solution: No
